experiment: chemical genetic growth profiling, strain panel (AID 1159580);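 note: tested at 20 µM; growth read once vehicle control cultures reached saturation at 30 °C; 1 = growth at the plate median or of vehicle wells; lower values mean less growth of the strain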; conditions: S. cerevisiae deletion strains, growth OD, locus YHR129C, strain ARP1, hits give low values
Hit rate of the full screen: of about 5,500 compounds, about 2,000 (36%) were called active. Not shown: some 18% with an inconclusive outcome. The list shows a part of the results.
metric.name: normalized growth

// below: answered compounds
compound: NC(N)=NOCC[C@H](N)C(=O)O
normalized growth: 0.991 (inactive)
//
compound: COc1c2c(c(CC=C(C)C)c3oc(=O)c(-c4ccc(O)cc4)c(O)c13)OC(C)(C)C=C2
normalized growth: 0.61 (active)
//
compound: CN=C(NC#N)NCCSCc1nc[nH]c1C
normalized growth: 0.985 (inactive)
//
compound: COc1ccc2c(c1)OC[C@@H](Cc1ccc(OC)c(OC)c1)[C@@H]2O
normalized growth: 0.993 (inactive)
//
compound: Nc1nc2[nH]c(=O)c(=O)[nH]c2c(=O)[nH]1
normalized growth: 1.01 (inactive)
//
compound: CO[C@H]1C[C@H](O[C@H]2[C@H](C)[C@@H](OC3O[C@H](C)C[C@H](N(C)C)[C@H]3O)[C@@H](C)C[C@]3(CO3)C(=O)[C@H](C)[C@@H](O)[C@@H](C)[C@@H](C)OC(=O)[C@@H]2C)O[C@@H](C)[C@@H]1O (stereo partly specified)
normalized growth: 0.998 (inactive)
//
compound: CCCCCC(=O)O[C@]1(C(C)=O)CCC2C3CCC4=CC(=O)CC[C@]4(C)C3CC[C@@]21C (stereo partly specified)
normalized growth: 1.01 (inactive)
//
compound: CCc1cccc(C)c1N(C(=O)CCl)C(C)COC (stereo unspecified)
normalized growth: 1.01 (inactive)
//
compound: O=[N+]([O-])O[C@H]1CO[C@H]2[C@@H]1OC[C@H]2O[N+](=O)[O-]
normalized growth: 1.01 (inactive)
//
compound: CC(=C(CCOP(=O)(O)O)SC(=O)c1ccccc1)N(C=O)Cc1cnc(C)nc1N
normalized growth: 1 (inactive)

Hey, quick one: what's normalized growth for each of these?
1. COc1ccc(C(=O)c2ccccc2)c(O)c1
2. COc1ccc2cc1Oc1ccc(cc1)C[C@H]1c3cc(c(OC)cc3CCN1C)Oc1c(OC)c(OC)cc3c1[C@H](C2)N(C)CC3
3. CN1Cc2c(ccc3c2OCO3)C2C(O)Cc3cc4c(cc3C21)OCO4 (stereo unspecified)
4. NC(=O)N1c2ccccc2CC(=O)c2ccccc21
5. COc1ccc2c(c1)OC[C@@H](Cc1ccc(OC)c(OC)c1)[C@H]2O
6. O[C@H]1C=C2CCN3Cc4cc5c(cc4C(C23)[C@@H]1O)OCO5 (stereo partly specified)
7. CC(=O)O[C@]1(C(C)=O)CCC2C3C=C(C)C4=CC(=O)CCC4(C)C3CCC21C (stereo partly specified)

**A:**
1. 0.936 (inactive)
2. 1.01 (inactive)
3. 0.994 (inactive)
4. 0.99 (inactive)
5. 0.994 (inactive)
6. 0.613 (active)
7. 0.94 (inactive)

Hey, quick one: what's normalized growth for each of these?
1. C1CCc2nnnn2CC1
2. COC1C(O)C(O)C(O)[C@@H](O)C1O (stereo partly specified)
3. O=c1ccc2ccccc2o1
4. O=C(O)COc1cc(Cl)c(Cl)cc1Cl
5. CCCCCCCCCCCCC[N+](C)(C)Cc1ccccc1
6. COC(=O)[C@H]1[C@H]2C[C@H]3c4[nH]c5ccccc5c4CCN3C[C@H]2CC[C@@H]1O

**A:**
1: 1.02 (inactive); 2: 1.01 (inactive); 3: 1.02 (inactive); 4: 1.01 (inactive); 5: 0.0544 (active); 6: 1.01 (inactive)

Hey, quick one: what's normalized growth for each of these?
1. COc1ccc(-c2coc3c(OC)c(O)ccc3c2=O)cc1
2. CC(=O)O[C@@](C)(CCC=C(C)C)C1CC=C(C)CC1 (stereo partly specified)
3. COc1ccc(-c2coc3c(OC)c(OC)cc(OC)c3c2=O)cc1
4. Cc1cc(C(C)(C)CC(C)(C)C)ccc1OCCOCC[N+](C)(C)Cc1ccccc1
5. COc1ccc(C(=O)c2ccccc2O)c(O)c1
6. CC[C@@H](CO)NCCN[C@@H](CC)CO

**A:**
0.96 (inactive)
1.02 (inactive)
0.995 (inactive)
0.0578 (active)
0.949 (inactive)
1.02 (inactive)

Hey, quick one: what's normalized growth for each of these?
1. CC(=O)OCC(CCn1cnc2cnc(N)nc21)COC(C)=O
2. CC(C)(C)CC(C)(C)c1ccc(OCCOCC[N+](C)(C)Cc2ccccc2)cc1
3. COC(=O)[C@@H]1C(O)CC[C@H]2CN3CCc4c([nH]c5ccccc45)[C@@H]3C[C@@H]21 (stereo partly specified)
4. CCCCOc1ccc(OCCCN2CCOCC2)cc1
5. COc1cccc2c1CCC1CC(=O)CCC21C (stereo unspecified)

**A:**
["0.991 (inactive)", "0.994 (inactive)", "0.998 (inactive)", "0.99 (inactive)", "0.977 (inactive)"]

====

assay: chemical genetic growth profiling, strain panel (AID 1159580);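 note: tested at 20 µM; growth read once vehicle control cultures reached saturation at 30 °C; 1 = growth at the plate median or of vehicle wells; lower values mean less growth of the strain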; conditions: S. cerevisiae deletion strains, growth OD, locus YNL298W, strain CLA4 (second series), hits give low values
Among all 5,500 compounds or so, about 2,000 (36%) were called active. Roughly 18% stayed inconclusive and do not appear here. The list shows a part of the results.
Labelling: normalized growth reported below 1 becomes yes (1); at or above becomes no (0).

Field: example entries. Status: answers known.
sample.smiles: COc1ccccc1CC(=O)NC1CCN(Cc2ccccc2)CC1
class.name: no (0)

sample.smiles: CN1C/C(=C\c2ccccc2Cl)C(=O)/C(=C/c2ccccc2Cl)C1
class.name: yes (1)

sample.smiles: COc1ccc(S(=O)(=O)Nc2cc(C)c(C)cc2[N+](=O)[O-])c(OC)c1
class.name: no (0)

**Q:** Would you kindly verify if normalized growth of CC(=O)/C(=C\Nc1ncccn1)S(=O)(=O)c1ccc(Cl)cc1 is strictly less than 1?
**A:** yes (1)

**Q:** Would you kindly verify if normalized growth of CN(C)/C=C1\C(=O)c2ccccc2N(C)S1(=O)=O is strictly less than 1?
**A:** yes (1)

====

experiment: chemical genetic growth profiling, strain panel (AID 1159580);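 note: tested at 20 µM; growth read once vehicle control cultures reached saturation at 30 °C; 1 = growth at the plate median or of vehicle wells; lower values mean less growth of the strain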; conditions: S. cerevisiae deletion strains, growth OD, locus YKL048C, strain ELM1
Screen size: about 5,500 compounds; about 2,000 (36%) were called active. Another 18% or so got no clear call; they are omitted. Cut-off read from the data, not from the text of the source: active = normalized growth mostly below about 0.91 (no sharp cut-off); inconclusive = no clear call, values can overlap the other calls; inactive = mostly above about 0.92. The list shows a part of the results.
Outcome field: choose from active, inactive

Field: example entries. Status: answers known.
compound: C/C(=N/NC(N)=S)c1ccccn1
class.name: inactive
//
compound: O=C(Nc1c(Br)c(C2CC2)nn1-c1ccccc1)C(Cl)(Cl)Cl
class.name: active
//
compound: N#C/C(=C\c1ccccc1Sc1ccc(Cl)cc1)S(=O)(=O)c1ccccn1
class.name: inactive
//
compound: CCC(C)c1ccccc1NC(=O)c1cc2cccc([N+](=O)[O-])c2[nH]1 (stereo unspecified)
class.name: inactive
//
compound: CC(C)(C)C1=NN(c2nc3ccc(Cl)cc3s2)C(=O)C1
class.name: active
//
compound: O=[N+]([O-])c1cc(C(F)(F)F)ccc1-n1ccc(-c2cccs2)n1
class.name: inactive

**Q:** Test call for this compound, please: N#C/C(=N/Nc1ccccc1Cl)S(=O)(=O)c1ccc(Cl)cc1
**A:** inactive

**Q:** Test call for this compound, please: CC1=CC(=O)C(CCOCCC2=CC(=O)C(C)=CC2=O)=CC1=O
**A:** inactive

**Q:** Test call for this compound, please: Cc1c(Cl)cccc1NC(=S)N1CCCN(c2nc3ccc(Cl)cc3s2)CC1
**A:** inactive

**Q:** Test call for this compound, please: Cc1c(C(=O)N2CCCCC2)cc(-c2ccccc2)n1-c1ccccc1
**A:** inactive

**Q:** Test call for this compound, please: Cc1oc2c(F)c(F)c(F)c(F)c2c1C(=O)ONC(N)c1ccc(OS(=O)(=O)N(C)C)cc1 (stereo unspecified)
**A:** inactive

====

assay: chemical genetic growth profiling, strain panel (AID 1159580);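 note: tested at 20 µM; growth read once vehicle control cultures reached saturation at 30 °C; 1 = growth at the plate median or of vehicle wells; lower values mean less growth of the strain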; conditions: S. cerevisiae deletion strains, growth OD, locus YLR113W, strain HOG1, hits give low values
About 2,000 (36%) of roughly 5,500 compounds were called active. About 18% were inconclusive and are not listed. The list shows a part of the results.
For each of the molecules below, state its normalized growth.
One number for each entry.

// below: answered molecules
molecule: COC(=O)[C@@H]1C(O)CC[C@H]2CN3CCc4c([nH]c5ccccc45)[C@@H]3C[C@@H]21 (stereo not given in full)
readout.number: 1
--
molecule: COC(=O)C1[C@H]2C[C@H]3c4[nH]c5ccccc5c4CCN3C[C@@H]2CC[C@@H]1O (stereo not given in full)
readout.number: 1.01
--
molecule: CC(=O)OCC1=C(C(=O)O)N2C(=O)[C@@H](N)C2SC1 (stereo not given in full)
readout.number: 1.05
--
molecule: CC(C)[N+](C)(CCOC(=O)C1c2ccccc2Oc2ccccc21)C(C)C
readout.number: 1.02

// switching to the query molecule
**Q:** Field request: normalized growth | item: CCOc1ccc(NC(=O)CC(C)O)cc1 (stereo not given)
**A:** 1.06
